assay: label from the status in PepcDB records;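 further: failed if final PepcDB status was selected cloned or expressed and not failed if soluble or beyond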
Metric: protein production

Before answering, review these 5 worked examples.
[[record]]
residue_sequence = "MSLTNGEENEEVLFCEKAKLLIFDSDTKGYTSRGVGELKLLRKKDDKGKVRVLCRSEGMGHVLLNTSVVKSFKYQPIDADNENLIKWPIITDGKLETFIIKVKQKADGRRLVGAVADAQQAMEGHHHHHH"
val = "not failed"

[[record]]
residue_sequence = "MAKSKKIVFTGGGTVGHVTLNLILIPKFLKDGWEVHYIGDKHGVEHEQIDKSGLDVTFHSIATGKLRRYFSWQNMLDVFKVGWGILQSIAIIAKIRPQALFSKGGFVSVPPVIASKLLRVPVYVHESDLSMGLANKIAYKFATTMFTTFEQSKTLVKTRHVGAITKVGMTRFDNSDQLDKIKEQFDEKLKTVLFIGGSAGAKVFN"
val = "failed"

[[record]]
residue_sequence = "MASDAPTGHVSDLDWLMSGLVQRVPHTTSAVLLSCDGLVKSVHGLDPDSADHMAALASGLYSLGRSAGIRFGDGGDVRQVVVELDSTLLFVSTAGSGTCLAVLAGREADAAVLGYEMAMLVKSVRPYLMTAPRQAAAQPPAMRP"
val = "failed"

[[record]]
residue_sequence = "MSIKPKIMISSLDAERLEILLETLSQNAFPGRDDLEAELARAEVVDPEEIPPTVVTMNSTVRFRVESSAEEFCLTLVYPKDVDTSGEKISILAPVGSALLGLAQGDEIEWPKPGGGVLRVRIVEVTYQPERSGEYYR"
val = "not failed"

[[record]]
residue_sequence = "MLGLKTSIIGRRVIYFQEITSTNEFAKTSYLEEGTVIVADKQTMGHGRLNRKWESPEGGLWLSIVLSPKVPQKDLPKIVFLGAVGVVETLKEFSIDGRIKWPNDVLVNYKKIAGVLVEGKGDKIVLGIGLNVNNKVPNGATSMKLELGSEVPLLSVFRSLITNLDRLYLNFLKNPMDILNLVRDNMILGVRVKILGDGSFEGIAEDIDDFGRLIIRLDSGEVKKVIYGDVSLRFL"
val = "not failed"


Problem: What does the record list as protein production for EDFRPVVFVHGLAGSAGQFESQGMRFAANGYPAEYVKTFEYDTISWALVVETDMLFSGLGSEFGLNISQIIDPETLDKILSKSRERLIDETFSRLDRVIDEALAESGADKVDLVGHSMGTFFLVRYVNSSPERAAKVAHLILLDGVWGVDAPEGIPTLAVFGNPKALPALGLPEEKVVYNATNVYFNNMTHVQLCTSPETFAVMFEFINGYKPATT ?
Solution: not failed

Problem: What does the record list as protein production for MFKSVQQRTIQNGQVIPFYHSTNELAHIQNILQSQTPLVSLKEINKFRQLIARASVGEYFLIQSGDCAENFYECDKDTTHAKLDFIRHLATFFHQKTGCSVIQVGRIARQYAKPRSNQYEICQNKRIYSYFGGMINQSQETQRRPNPWRILLSYNCSASIYRKINQWNRGINPEQKIYTSQEAFLFNYEQSLTRWDERTGLYYNLSTHFPWLGKRTVSSLQHINHLKKIANPIAVKIGPDTPIKNLVKVINELDPSYIPGRITLIPELGAQNVYHILPQLIDAVKRTDRTVLWSCDPMHGNTETLSSGIKIRKLSNIVEEIKNSFFIHRKMGSQLNAIHLEATHQNVTECMDYKSSHCESISDLKKNYKNLLDPRLNYAQTLHVIQCVAKYYANS ?
Solution: failed

Problem: What does the record list as protein production for MRYGRTVPVTEAAELPPAPEQAREVFGDRFADAVRYAELLAEAGVQRGLIGPREVPRLWERHLLNCAVLSEVVPEGVTVCDVGSGAGLPGIPLALVREDLKITLLEPLLRRTNFLTEVVELLGLDHVTVIRGRAEEVMGKIPPVHVVTARAVAPLDRLATWGIPLLRPYGEMLALKGDTAEEELKSAATALSKLGAVETSVLHVGEGVVDPLSTVVRVEVGESPGGVRFAAKRAKAARTGRTRRRR ?
Solution: failed

Problem: What does the record list as protein production for MVHHDGTLQALITAYQKTPAFTDLAEATRKGYIRHIRQIEADFGDMPVQALADPRVRGEFLDWRDRLAQKSKRSADYAFSVLARILSWAHDRRKIPVNPCEKPGRLEHHHHHH ?
Solution: failed

Problem: What does the record list as protein production for MALEPAEIFEKVSPSVWEVRVIGPDGKGLSMGSAVVIGDGVVITNCHVLRGGKQVWLKRGNANFGARLQYPDVERDLCQLRVADFHYPPVTLAPGSALVTGQKVYAIGNPLGLELTISEGLISSLRTDDDGRLKSVQTSAAISRGSSGGGLFDANGRLIGITDHQVVLTLGQNLNFAIPADWIADVPARAQKALAARAAAASAVVASTPAPQSAAPTPAPAPAPRHQGELGPNQQTGFSVYLQKTWPKAFVAADGDHYYYWTGKNAELYALSACQERWQNCSVYARNNTVVEPVEGTGERPGAAR ?
Solution: failed

Problem: What does the record list as protein production for KLKISEASLEDYSEVVHLFNRNHVYQFPDGRPLTVDDLDLTLKVKEVTHLFLLKNHGVLIGTSAFFKFITYGCLDWNSSFSGFLLIDSKSRSGQAITYLYKTILKKITKLKFSNIYTEISNYNKPSLALSKLNGFKEYDKTYEDILHCRSLRSHL ?
Solution: failed

Problem: What does the record list as protein production for NAVHFGAGNIGRGFIGKLLADAEVEVTFADVDVPLVDQLSHKQEYKVKVVGTECKIDTVTHVTAVNSASEDVIDRIVKTDLVTTAVGPNVLDIIAKTIAKGIAKRFEAGNDAPLNIIACENMVRGTTHLKGEVYKHLDKSLHAKADELVGFVDSAVDRIVPPAEAANDDPLEVTVESFSEWIVDEQQFKGDIPNIAGMEKTNN ?
Solution: not failed

Problem: What does the record list as protein production for MSLYTILVVDDSPMIVDVFVTMLERGGYRPITAFSGEECLEALNATPPDLVLLDIMMEPMDGWETLERIKTDPATRDIPVLMLTAKPLTPEEANEYGSYIEDYILKPTTHHQLYEAIEHVLARRHSIAADEGHHHHHH ?
Solution: not failed

Problem: What does the record list as protein production for MEKQPNKLIREKSPYLLQHAWNPVDWHPWGEEAFSRARETGRPIFLSSGYSTCHWCHVMEHESFENAETAALLNRHFVPVKLDREEHPDVDHLYMMFVQATTGRGGWPMSVWMTPDLKPFFGGSYFPATERWGMPSFRSVLEHLANLWEHDRPRLLASAGSIMDQLSGLTRP ?
Solution: failed

====

test: label from the status in PepcDB records
Metric: protein production

[[record]]
residue_sequence = "MEFIVDSVDKTMHIGRQLGSLVNKGDILCLTGDLGTGKTHISKGIAEGLGIDEHITSPTFNIVNEYHSGRLTLYHFDVYRVNDPDEIEAIGFDEYIFGDGVSLIEWANYIEELIPEEYIHIKIEKLPDMGENFRKITINGYGDRYNYIKEIKECLEHHHHHH"
metric = "protein production"
val = "not failed"

[[record]]
residue_sequence = "MPPLCPLPTGGKRTNLHQYRHATRAMTDRLSPERRRYLMQQVRSKNTRPEKAVRSLLHSIGYRFRLHRKDLPGTPDIVFPSRRLVLFVHGCFWHGHGCRIGQLPKSRLDYWSPKIEANRARDQRKEAALAAEGWRVAVVWQCELSDLGALEARLRNILDPS"
metric = "protein production"
val = "failed"

[[record]]
residue_sequence = "MNFNRFTQRAKKAIDLAFESAKSLGHNIVGSEHILLGLLREEEGIAAKVLSKVGFTEAYLEGKIVDMEGKGEEISEDIVLSPRSKQILELSGMFANKLKTNYIGTEHILLAIIQEGEGIANKILNYAGVNDRTLAQLTIDMMG"
metric = "protein production"
val = "not failed"

[[record]]
residue_sequence = "MRELFKSVRGFFRLLRMIFPKRLKNAFLGLSELFYYASSLSFYTILSLSPILLFVFSLFVSHYLQAHSGEMEALIFPNAPKLIGAIKDFLENFKKTDMTLGTLEEVSIVVALVLFCENYRSIASKIFQAKPRDYAHFKGKEIFLFWGFGTTLVFLFALPLVVFFDIKIQVFFEDKNSNLLHVLRWIGTYAFFLILFTIPTNKVFKHYFWVFLWVFFTSVSWHVLKWAFTYYVLYNRTYHELYGSVSILWFLMSWVYVSWLVILIGMYGCKVCDAFDPKEVFKKFLGFFKKET"
metric = "protein production"
val = "failed"


====

test: label from the status in PepcDB records
Metric: protein production

Before answering, review these 6 worked examples.
[[record]]
residue_sequence = "GVAVEVRGLPPAVPDELLTLYFENRRRSGGGPVLSWQRLGCGGVLTFREPADAERVLAQADHELHGAQLSLRPAPPRAPARLLLQGLPPGT"
metric = "protein production"
val = "not failed"

[[record]]
residue_sequence = "MAALSEKEAEAYLDARPRYPIDWFKKIAARTQDHKFAWDVGTGNGQAAIGLVEHYENVVATDINEAQLQRAIKHSRISYHHTPTTISEDEMVDLLGGENSVDLIVAAQAVHFFDLNVFYNVAKRVLRKEGGLIAVWVYNDIIISHEIDPIMKRLVDSTLPFRTPIMNLAFDGYKTLTFPFETIGMGSEGKPITLDIPHKLSLKGFIGFLRSWQPAMKAKEKGVELINEDLITKFEEAWGDETQVKDVFYKAHMIVGKIPEEKFESDQVLSNKGRLLLETEVGRNQKRPQPSDEGDRQSKKQNTSEDDACKDKPSSVFSTHYRF"
metric = "protein production"
val = "failed"

[[record]]
residue_sequence = "MSLMQLQLTQEWDKTFPLSAKVEHRKVTFANRYGITLAADLYLPKNRGGDRLPAIVIGGPFGAVKEQSSGLYAQTMAERGFVTLAFDPSYTGESGGQPRNVASPDINTEDFSAAVDFISLLPEVNRERIGVIGICGWGGMALNAVAVDKRIKAVVTSTMYDMTRVMSKGYNDSVTLEQRTRTLEQLGQQRWKDAESGTPAYQPPYNELKGGEAQFLVDYHDYYMTPRGYHPRAVNSGNAWTMTTPLSFMNMPILTYIKEISPRPILLIHGERAHSRYFSEIAYAAAAEPKELLIVPGASHVDLYDRLDRIPFDRIAGFFDEHLEGHHHHHH"
metric = "protein production"
val = "not failed"

[[record]]
residue_sequence = "MSLEARVLTGAALEARLDEVARLRIAVFRDWPYLYEGSMDYERSYLSTYRTSPGAILVGAFDGDRLVGASTGTPMEDHAEDFAAAFARTGLPLDEIFYCAESVLLPDYRGHGMGHRFFDLREAHARALGRRHSAFCSVIRPEDHPLRPAAARSNEPFWRKRGYAPLPGVVAHYGWTDVGEERETQKPLQFWIRDL"
metric = "protein production"
val = "not failed"

[[record]]
residue_sequence = "KNIEETELVVEEMLEQYPNGKIVRLLFHGEQAKLPIISHIVQEYQVEVSIIQGNIQQTKQGAVGSLYIQLLGEEQNILAAIEGLRKLRVETEVIGNE"
metric = "protein production"
val = "not failed"

[[record]]
residue_sequence = "FHPVYSVQLEQKLVEKFNLKRALISLDQPNTNEQRKQVAALVSSYLNNNLQEGMAVAVGQGQNVAAVADHAGIVTQRNARFVSAIGGTHRSGDIINADHICRRLAKKYGGSSETLYAPAYVNDPSLRSAFMEHATIKETLSQARKAEFALVGIGDMDENSHMVKLGFFTPKEFVEARLNDGIVGDIGGFDFFKLDGTDADTLMRGRVIGLEMEDLRQIPNVVAMASESRKALSIMGALRTGVIDVLATSVSCAMALLNLAENEE"
metric = "protein production"
val = "not failed"


Lab note: next sequence to report on.
Problem: What does the record list as protein production for MLSKILYADSGTSQTQEMLKAMMDFPAVQKASITILHVVPPQITTEAFTEKWAEGGKILADLLEDVAIEPSKVSTVLRQGDPKGVVCDVANEIDADLIIMGSRGLKRLEAILENSVSQYVFQLTNHPMLLVKDDIYVKRIKRVMVALDKSAAAEYALELALELLRDYPEGELILARVNPDLKPDLLPLSRQEIEENPVLAPAIAKAKRLGIAYRCTVTGGKPGEKLCELAEDYNADLMLLGSPDRRPSIAKSLPDLDRLLGTSLSDYIRVNAPCPVLLTRKEGI ?
Solution: failed
